- Test system: L1210 leukemia ip in BDF1 mice, survival T/C
- Method Notes: NCI In Vivo Anticancer Drug Screen. Data for tumor model L1210 Leukemia (intraperitoneal) in B6D2F1 (BDF1) mice
- Measurement Conditions: endpoint: mean survival time; dose: 25.0 mg/kg/injection; schedule: Q01DX009 (ip); vehicle: Klucel (hydroxypropylcellulose) (HPC); higher = longer survival
- Procedure: The antitumor activity of compounds was measured in mice bearing transplantable tumors. Survival or tumor size were measured and the results are expressed as the measurement made in the treated group (T) divided by the measurement made in the vehicle treated control group (C). The tumor model used in this assay is L1210 Leukemia (intraperitoneal) in B6D2F1 (BDF1) mice
Toxic doses and inconclusive results are not listed.
Catalogue of molecules with associated T/C

# count of solved cases: 3
Molecule	T/C
C/C(=N/NC(=O)C1CCCO1)c1ccc(C)cc1 (centres undefined)	102 % of control
CCCCOP(=O)(O)OCCCC.[Cd]	94 % of control
C=CCNC(=O)Nc1ncc([N+](=O)[O-])s1	90 % of control

Attention now shifts to the item below.
So the reported T/C for CC(C)=CC(=O)OC1C2C(C)C(=O)OC2C(O)C(C)C2C=CC(=O)C21C (centres undefined) , on L1210 leukemia ip in BDF1 mice, survival T/C, turned out to be 97 % of control

Data provenance: PubChem BioAssay AID248
